- Tested Target: T1, HLA-A*02:01 (human)
- T1 construct: captured on streptavidin plates, detected with anti-β2m; also called peptide-receptive MHC molecules; MHC class I
- Assay: UV-ligand exchange + anti-β2m ELISA; exchange yield grade: ≥10% +, ≥20% ++, ≥50 +++, ≥75% ++++
Property Measured: peptide exchange yield

Below are worked cases with known answers.
* ALMDGSESRFFV (also called ALMDGSESRFFV) [BSG-001] | ≥ 75%
* SLYDVPVGA (also called SLYDVPVGA) [altORF-020] | ≥ 75%
* SLGPPPVGV (also called SLGPPPVGV) [CIZ1-001] | ≥ 75%
* VLLNSNYPV (also called VLLNSNYPV) [altORF-033] | ≥ 75%
* FVFISPSFL (also called FVFISPSFL) [altORF-019] | 50 to 75%
* HLDSMNVSI (also called HLDSMNVSI) [altORF-010] | ≥ 75%
* ISVLNLSAI (also called ISVLNLSAI) [altORF-023] | 20 to 50%

Okay, next one:
(Q) Give its peptide exchange yield value. Item: GLEVLDALL (also called GLEVLDALL) [altORF-021]
(A) 20 to 50%
